test system: 7G8; experiment: qHTS profiling for inhibitors of Plasmodium falciparum proliferation (AID 504749); also: nearly all actives have a fitted effect of over 60% in size; also: potency is read from the fitted curve at half-maximal effect; details: P. falciparum in erythrocytes, SYBR Green DNA, 72 h; series mostly up to 28.7 µM
Results filed as inconclusive are left out. The source made the active and inactive calls. Calls follow the shape of the dose curve; as a rule, active = well fitted inhibition curve with a large enough effect; inconclusive = small, poorly fitted or top-dose-only effect; inactive = flat fitted curve, though single readings scatter.
Observable: Potency

CN(C)CCC(c1ccccc1)c1ccccn1 (configuration not stated)	5.62 µM (active)
NCCS	inactive
CCCNC(=O)NS(=O)(=O)c1ccc(Cl)cc1	inactive
CCN(CC)C(=O)c1ccc(O)c(OC)c1	inactive
CC/C(=C(\c1ccccc1)c1ccc(OCCN(C)C)cc1)c1ccccc1	12.6 µM (active)

For every item below, please supply its Potency.
1. O=C(O)c1c(Cl)c(Cl)c(Cl)c(Cl)c1-c1c2cc(I)c(=O)c(I)c-2oc2c(I)c(O)c(I)cc12
2. O=C1Nc2ccc(Cl)cc2C(C#CC2CC2)(C(F)(F)F)O1 (configuration not stated)

["inactive", "11.2 µM (active)"]

For every item below, please supply its Potency.
1. O=C1NC(=O)C(c2ccccc2)(c2ccccc2)N1
2. C[C@@H](O)[C@H]1C(=O)N2C(C(=O)O)=C(S[C@@H]3CN[C@H](C(=O)N(C)C)C3)[C@H](C)[C@H]12
3. CC(=O)N[C@@H](CS)C(=O)O
4. CCN(CC)CCNC(=O)c1ccc(N)cc1
5. CC(=O)c1ccc(S(=O)(=O)NC(=O)NC2CCCCC2)cc1

1. inactive
2. inactive
3. inactive
4. inactive
5. inactive
